Target: Sterol O-acyltransferase 1 (Rattus norvegicus)
Experiment: Inhibition of Fu5AH Acyl coenzyme A:cholesterol acyltransferase at the concentration of 10 ug/mL
# label = label 1 if inhibition >= 20% else label 0

See these solved cases before continuing.
compound=O=C1c2c(c(=O)n3nc(-c4ccccc4)cc3n2Cc2ccccc2)CN1Cc1ccccc1 category_label="label 1"
compound="O=C(Cn1c2c(c(=O)n3nc(-c4ccccc4)cc13)CN(C1CC3CCC1C3)C2=O)c1ccccc1 (stereo unspecified)" category_label="label 1"
compound=CCOC(=O)CCCn1c2c(c(=O)n3nc(-c4ccccc4)cc13)CN(C1CCCCC1)C2=O category_label="label 1"
compound=O=C1c2c(c(=O)n3nc(-c4ccccc4)cc3n2C/C=C/c2ccccc2)CN1C1CCCCC1 category_label="label 1"
compound=CCCCCCN1Cc2c(n(CC(=O)c3ccccc3)c3cc(-c4ccccc4)nn3c2=O)C1=O category_label="label 1"

Request: Quick check, inhibition >= 20%? "O=C1c2c(c(=O)n3nc(-c4ccccc4)cc3n2Cc2ccccc2)CN1C1CCCCC1"
Response: label 1

Request: Quick check, inhibition >= 20%? "C=CCCCCn1c2c(c(=O)n3nc(-c4ccccc4)cc13)CN(C1CCCCC1)C2=O"
Response: label 1

Request: Quick check, inhibition >= 20%? "O=C(Cn1c2c(c(=O)n3nc(-c4ccccc4)cc13)CN(Cc1ccccc1)C2=O)c1ccccc1"
Response: label 1

Request: Quick check, inhibition >= 20%? "CCCCCCCCCCCCCCCCOc1ccc(C(=O)Cn2c3c(c(=O)n4nc(-c5ccccc5)cc24)CN(C2CCCCC2)C3=O)cc1"
Response: label 0

Request: Quick check, inhibition >= 20%? "O=C(Cn1c2c(c(=O)n3nc(-c4ccccc4)cc13)CN(C1CCCCC1)C2=O)c1ccc2ccccc2c1"
Response: label 0

Request: Quick check, inhibition >= 20%? "CN1Cc2c(n(Cc3ccccc3)c3cc(-c4ccccc4)nn3c2=O)C1=O"
Response: label 0

Request: Quick check, inhibition >= 20%? "COC(=O)c1ccc(C(=O)Cn2c3c(c(=O)n4nc(-c5ccccc5)cc24)CN(C2CCCCC2)C3=O)cc1"
Response: label 0

Request: Quick check, inhibition >= 20%? "CCOc1ccc(-c2cc3n(Cc4ccccc4)c4c(c(=O)n3n2)CN(C2CCCCC2)C4=O)cc1"
Response: label 1

Request: Quick check, inhibition >= 20%? "C=CCOc1ccc(-c2cc3n(Cc4ccccc4)c4c(c(=O)n3n2)CN(C2CCCCC2)C4=O)cc1"
Response: label 1

Request: Quick check, inhibition >= 20%? "O=C(Cn1c2c(c(=O)n3nc(-c4ccccc4)cc13)CN(C1CCCCC1)C2=O)c1ccccc1"
Response: label 1

Request: Quick check, inhibition >= 20%? CC1CCCC(N2Cc3c(n(CC(=O)c4ccccc4)c4cc(-c5ccccc5)nn4c3=O)C2=O)C1C (stereo unspecified)
Response: label 1
